- Assay target: T1, interleukin-23 receptor (IL-23R), Q5VWK5
- T1 chain: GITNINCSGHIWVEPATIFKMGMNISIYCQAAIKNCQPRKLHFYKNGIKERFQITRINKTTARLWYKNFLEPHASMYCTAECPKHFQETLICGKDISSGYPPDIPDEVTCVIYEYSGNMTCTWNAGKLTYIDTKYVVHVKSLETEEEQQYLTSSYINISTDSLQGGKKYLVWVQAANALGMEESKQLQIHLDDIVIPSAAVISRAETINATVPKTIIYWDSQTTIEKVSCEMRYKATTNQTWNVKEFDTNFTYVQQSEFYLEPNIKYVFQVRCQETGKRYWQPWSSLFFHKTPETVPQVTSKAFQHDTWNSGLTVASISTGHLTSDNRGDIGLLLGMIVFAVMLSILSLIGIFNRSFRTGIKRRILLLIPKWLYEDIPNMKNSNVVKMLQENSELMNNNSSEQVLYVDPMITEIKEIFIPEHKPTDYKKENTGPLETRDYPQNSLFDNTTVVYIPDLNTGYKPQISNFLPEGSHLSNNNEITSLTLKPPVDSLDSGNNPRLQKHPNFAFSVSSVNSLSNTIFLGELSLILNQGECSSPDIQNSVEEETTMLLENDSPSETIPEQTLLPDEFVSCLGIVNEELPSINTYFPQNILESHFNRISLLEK
- Experiment: cell-based or functional assay
Positions of bridges follow the written chain, without caps; N, C: chain ends. Non-standard residues stand in square brackets, D forms with d. No end group written: not given here. 2Nal(6-OH) = N[C@@H](Cc1ccc2cc(O)ccc2c1)C(=O)O; Trp(7-Me) = Cc1cccc2c(C[C@H](N)C(=O)O)c[nH]c12; AEF = NCCOc1ccc(C[C@H](N)C(=O)O)cc1; 3Pal = N[C@@H](Cc1cccnc1)C(=O)O; Pen = CC(C)(S)[C@H](N)C(=O)O; lipid = not defined here; Thp = NC1(C(=O)O)CCOCC1; Sar = CNCC(=O)O
For each of the binders below, state its PBMC pSTAT3 IC50.

Fill in: PBMC pSTAT3 IC50 of [Pen]NT[Trp(7-Me)]K[Pen][AEF][2Nal(6-OH)][Thp]K(Ac)N[3Pal][Sar] (disulfide 1-6 (inferred); ends not checked; also: K5: lipidated lysine, lipid not given here) [SEQ ID NO: 130] is ___
< 1 nM

Quick one: [Pen]NT[Trp(7-Me)]K(Ac)[Pen][2‑amino‑3‑(4-(2-aminoethoxy)phenyl)propanoic acid][2‑amino‑3‑(6-hydroxynaphthalen-2-yl)propanoic acid][Thp]K(Ac)N[3Pal][Sar]K(lipid) (disulfide 1-6 (inferred); ends not checked; also: K14: lipidated lysine) [SEQ ID NO: 275]
< 1 nM

Same for [(R)‑3‑carboxy‑2‑(4-(((R)-5-carboxy-5-hydrazineylpentyl)amino)-4-oxobutanamido)‑N,N,N‑trimethylpropan‑1‑aminium][Pen]NT[Trp(7-Me)]K(Ac)[Pen][2‑amino‑3‑(4-(2-aminoethoxy)phenyl)propanoic acid][2‑amino‑3‑(6-hydroxynaphthalen-2-yl)propanoic acid][Thp]EN[3Pal][Sar] (disulfide 2-7 (inferred); ends not checked) [SEQ ID NO: 266]
< 0.1 nM

Values were extracted from patent US20240279281A1.
